# credit: ChEMBL document CHEMBL1828519

- Assay Method Text: Apparent permeability of the compound by PAMPA assay
- Type: ADME
Property Measured: Papp (nm/s)
Form entry: value (nm/s) — number only.

Suppose we examine the molecule COC(=O)c1cccc(Nc2nc3c(s2)CCCc2n[nH]cc2-3)n1 ; what Papp value has been reported?
1

Also, c1cc(Nc2nc3c(s2)CCCc2[nH]ncc2-3)nc(N2CCCC2)c1 please.
1

Also, Cc1ccnc(Nc2nc3c(s2)CCc2n[nH]cc2-3)c1 please.
124

Also, Cc1cccc(Nc2nc3c(s2)CCc2[nH]ncc2-3)n1 please.
20

Also, Cc1ccc(Nc2nc3c(s2)CCc2n[nH]cc2-3)nc1 please.
19

New cases:
Suppose we examine the molecule c1[nH]nc2c1-c1nc(NC3CCCCC3)sc1CCC2 ; what Papp value has been reported?
28

Also, c1cnc(Nc2nc3c(s2)CCCc2[nH]ncc2-3)nc1 please.
15

---

CL values for the compounds below.
- Assay Method Text: Intrinsic clearance in human microsomes
- Assay type: ADME, Microsome
Form entry: value (L/min) — number only.

Worked cases, answers included:
Suppose we examine the compound c1cnc(Nc2nc3c(s2)CCc2[nH]ncc2-3)nc1 ; what CL value has been reported?
4.4

Also, c1ccc(Nc2nc3c(s2)CCc2[nH]ncc2-3)nc1 please.
5.6

Turning now to a further compound:
Suppose we examine the compound c1cnc(Nc2nc3c(s2)CCCc2[nH]ncc2-3)nc1 ; what CL value has been reported?
9

---

- System: Metabotropic glutamate receptor 4 (Homo sapiens)
- Sequence (Q14833 whole entry): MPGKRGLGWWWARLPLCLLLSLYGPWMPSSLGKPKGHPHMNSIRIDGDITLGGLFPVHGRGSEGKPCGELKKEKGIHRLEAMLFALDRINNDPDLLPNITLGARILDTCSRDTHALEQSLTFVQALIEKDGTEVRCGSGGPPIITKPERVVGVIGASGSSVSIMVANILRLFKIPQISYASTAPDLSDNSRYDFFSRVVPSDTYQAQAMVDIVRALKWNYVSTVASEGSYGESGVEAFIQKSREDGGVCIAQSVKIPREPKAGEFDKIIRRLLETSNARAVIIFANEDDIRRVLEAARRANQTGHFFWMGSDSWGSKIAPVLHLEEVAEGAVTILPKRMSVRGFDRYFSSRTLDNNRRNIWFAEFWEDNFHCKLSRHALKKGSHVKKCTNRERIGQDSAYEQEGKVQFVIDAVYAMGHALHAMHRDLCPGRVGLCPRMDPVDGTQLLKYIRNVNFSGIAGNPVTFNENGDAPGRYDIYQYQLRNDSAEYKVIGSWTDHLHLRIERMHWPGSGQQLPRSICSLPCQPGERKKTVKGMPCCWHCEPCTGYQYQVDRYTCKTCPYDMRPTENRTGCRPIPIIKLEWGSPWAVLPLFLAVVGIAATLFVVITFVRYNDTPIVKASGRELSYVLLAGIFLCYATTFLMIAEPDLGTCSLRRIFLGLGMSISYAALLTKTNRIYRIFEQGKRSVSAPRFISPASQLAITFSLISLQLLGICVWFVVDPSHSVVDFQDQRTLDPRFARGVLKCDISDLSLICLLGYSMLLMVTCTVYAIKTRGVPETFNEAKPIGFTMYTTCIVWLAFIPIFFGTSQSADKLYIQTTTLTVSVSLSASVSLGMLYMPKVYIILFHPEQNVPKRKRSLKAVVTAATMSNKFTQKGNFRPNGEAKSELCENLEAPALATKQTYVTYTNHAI
- Assay Method Text: Positive allosteric modulation of human mGlu4 receptor expressed in BHK cells assessed as potentiation of glutamate-induced response after 1 hr by FLIPR assay relative to glutamate
- Format: cell-based
Property Measured: Emax (%)
Form entry: value (%) — number only.

Worked cases, answers included:
Suppose we examine the compound O=C(Nc1ccccc1)[C@]12C[C@H]1/C(=N\O)c1ccccc1O2 ; what Emax value has been reported?
120

Also, Cc1ccc(N2C(=O)c3ccccc3NC2C(C)c2ccccc2)cc1 (configuration not stated) please.
129

Also, c1cnc(Nc2nc3c(s2)CCc2n[nH]cc2-3)nc1 please.
180

New cases:
Suppose we examine the compound Cc1sc(Nc2ccccn2)nc1-c1cn[nH]c1 ; what Emax value has been reported?
100

Also, c1cc(Nc2nc3c(s2)CCCc2n[nH]cc2-3)nc(N2CCCC2)c1 please.
14

Also, Fc1cccc(Nc2nc3c(s2)CCCc2n[nH]cc2-3)n1 please.
170

Also, c1cc(Nc2nc3c(s2)CCc2n[nH]cc2-3)ccn1 please.
10

---

- Assay Method Text: Kinetic solubility of the compound at pH 7.4 at room temperature
- Format: physicochemical
- Settings: buffer, read-out: Kinetic_solubility
log10 of solubility kinetic values for the molecules below.
Friendly reminder: values = log10 of solubility kinetic, unit µM.

Worked cases, answers included:
Suppose we examine the molecule c1cnc(Nc2nc3c(s2)CCCc2[nH]ncc2-3)nc1 ; what log10 of solubility kinetic value has been reported?
0.48

Also, Cc1ccnc(Nc2nc3c(s2)CCCc2[nH]ncc2-3)n1 please.
-0.22

Also, Cc1cccc(Nc2nc3c(s2)CCc2[nH]ncc2-3)n1 please.
0.46

Turning now to a further molecule:
Suppose we examine the molecule Cn1ccc(Nc2nc3c(s2)CCCc2[nH]ncc2-3)n1 ; what log10 of solubility kinetic value has been reported?
2.20

---

solubility kinetic values for the compounds below.
- Assay Method Text: Kinetic solubility of the compound at pH 7.4 at room temperature
- Format: physicochemical
- Settings: buffer, read-out: Kinetic_solubility
Form entry: value (µM) — number only.

Worked cases, answers included:
Suppose we examine the compound Cc1ccnc(Nc2nc3c(s2)CCc2n[nH]cc2-3)c1 ; what solubility kinetic value has been reported?
9

Also, c1cnc(Nc2nc3c(s2)CCc2[nH]ncc2-3)nc1 please.
20

Turning now to a further compound:
Suppose we examine the compound Fc1cccc(Nc2nc3c(s2)CCCc2[nH]ncc2-3)n1 ; what solubility kinetic value has been reported?
0.2

---

- Assay Method Text: Kinetic solubility of the compound at pH 7.4 at room temperature
- Type: physicochemical
- Settings: buffer, read-out: Kinetic_solubility
solubility kinetic values for the compounds below.

Worked cases, answers included:
Suppose we examine the compound N#Cc1cccc(Nc2nc3c(s2)CCCc2[nH]ncc2-3)n1 ; what solubility kinetic value has been reported?
< 0.1 µM

Also, c1cc(Nc2nc3c(s2)CCCc2[nH]ncc2-3)nc(N2CCCC2)c1 please.
< 0.1 µM

New cases:
Suppose we examine the compound Fc1ccc(Nc2nc3c(s2)CCCc2[nH]ncc2-3)nc1 ; what solubility kinetic value has been reported?
< 0.1 µM
